target: T1, Recombinant soluble E protein (0.8E-His) from DENV-4 (DENV-4, UniProt P09866 280-674); test: SPR, Biacore T200
T1 construct: also called DENV-4 E protein; DV4
endpointLabel: binding result

Guide cases for binding result, answers given:
[in] Supply recorded binding result for DG_3CH1000-SG182/3CL666-SK1 (antibody, V domains shown) VH: QVQLVQSGPDVEKPGASVKVSCKASGYTFTSYYMHWVRQAPGQGLEWMGVINPRGGSRRSAQKFQGRITMTRDTSTSTVYMELSSLRSEDTAVYYCARGGRALFYDSYTTPFDGGSWWFDPWGQGSLVTVSS VL: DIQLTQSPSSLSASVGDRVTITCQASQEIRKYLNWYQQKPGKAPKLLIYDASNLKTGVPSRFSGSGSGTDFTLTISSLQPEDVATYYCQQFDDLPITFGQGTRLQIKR here.
[out] binds

[in] Give a short answer stating reported binding result for DG_3CH1049-SG182/3CL-SK1 (antibody, V domains shown) VH: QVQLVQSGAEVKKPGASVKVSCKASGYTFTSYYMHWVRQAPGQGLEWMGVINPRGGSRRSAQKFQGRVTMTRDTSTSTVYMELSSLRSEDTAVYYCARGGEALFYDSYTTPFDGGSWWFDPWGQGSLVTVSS VL: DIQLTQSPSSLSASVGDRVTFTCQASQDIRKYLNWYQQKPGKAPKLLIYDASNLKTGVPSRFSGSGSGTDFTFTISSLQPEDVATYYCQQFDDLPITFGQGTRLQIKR .
[out] binds

[in] For the binder DG_3CH1046-SG182/3CL666-SK1 (antibody, V domains shown) VH: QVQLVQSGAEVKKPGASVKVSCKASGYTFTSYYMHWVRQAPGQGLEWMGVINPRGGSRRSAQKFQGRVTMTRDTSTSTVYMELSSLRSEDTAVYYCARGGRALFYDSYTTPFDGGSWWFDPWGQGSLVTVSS VL: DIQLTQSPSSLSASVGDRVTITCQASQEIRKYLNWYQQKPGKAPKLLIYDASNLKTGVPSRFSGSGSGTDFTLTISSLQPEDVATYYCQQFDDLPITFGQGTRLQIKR , report binding result.
[out] binds

[in] Quote binding result reported for DG_3CH1049-SG182/3CL668-SK1 (antibody, V domains shown) VH: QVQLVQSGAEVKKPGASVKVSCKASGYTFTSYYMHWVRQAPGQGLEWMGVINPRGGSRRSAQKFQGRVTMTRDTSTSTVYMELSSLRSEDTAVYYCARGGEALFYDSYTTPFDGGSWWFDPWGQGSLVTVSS VL: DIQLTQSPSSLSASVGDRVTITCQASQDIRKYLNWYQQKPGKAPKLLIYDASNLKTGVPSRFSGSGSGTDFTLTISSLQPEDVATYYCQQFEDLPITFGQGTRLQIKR please.
[out] binds

Then this binder:
[in] Give the measured binding result for DG_3CH992-SG182/3CL012-SK1 (antibody, V domains shown) VH: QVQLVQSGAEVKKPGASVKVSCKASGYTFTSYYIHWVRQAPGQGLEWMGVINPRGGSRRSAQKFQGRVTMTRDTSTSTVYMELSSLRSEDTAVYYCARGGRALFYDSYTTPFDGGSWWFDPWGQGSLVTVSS VL: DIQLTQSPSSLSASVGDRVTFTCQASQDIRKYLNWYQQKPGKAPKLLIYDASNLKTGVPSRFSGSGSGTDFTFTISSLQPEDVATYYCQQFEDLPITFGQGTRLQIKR
[out] binds
